src = patent US11420973B2

Below is a list of entries, each paired with its recorded IC50 value.
- Subject of test: human TLR9 (Homo sapiens (Human), UniProt Q9NR96)
- Sequence (Q9NR96 26-1032): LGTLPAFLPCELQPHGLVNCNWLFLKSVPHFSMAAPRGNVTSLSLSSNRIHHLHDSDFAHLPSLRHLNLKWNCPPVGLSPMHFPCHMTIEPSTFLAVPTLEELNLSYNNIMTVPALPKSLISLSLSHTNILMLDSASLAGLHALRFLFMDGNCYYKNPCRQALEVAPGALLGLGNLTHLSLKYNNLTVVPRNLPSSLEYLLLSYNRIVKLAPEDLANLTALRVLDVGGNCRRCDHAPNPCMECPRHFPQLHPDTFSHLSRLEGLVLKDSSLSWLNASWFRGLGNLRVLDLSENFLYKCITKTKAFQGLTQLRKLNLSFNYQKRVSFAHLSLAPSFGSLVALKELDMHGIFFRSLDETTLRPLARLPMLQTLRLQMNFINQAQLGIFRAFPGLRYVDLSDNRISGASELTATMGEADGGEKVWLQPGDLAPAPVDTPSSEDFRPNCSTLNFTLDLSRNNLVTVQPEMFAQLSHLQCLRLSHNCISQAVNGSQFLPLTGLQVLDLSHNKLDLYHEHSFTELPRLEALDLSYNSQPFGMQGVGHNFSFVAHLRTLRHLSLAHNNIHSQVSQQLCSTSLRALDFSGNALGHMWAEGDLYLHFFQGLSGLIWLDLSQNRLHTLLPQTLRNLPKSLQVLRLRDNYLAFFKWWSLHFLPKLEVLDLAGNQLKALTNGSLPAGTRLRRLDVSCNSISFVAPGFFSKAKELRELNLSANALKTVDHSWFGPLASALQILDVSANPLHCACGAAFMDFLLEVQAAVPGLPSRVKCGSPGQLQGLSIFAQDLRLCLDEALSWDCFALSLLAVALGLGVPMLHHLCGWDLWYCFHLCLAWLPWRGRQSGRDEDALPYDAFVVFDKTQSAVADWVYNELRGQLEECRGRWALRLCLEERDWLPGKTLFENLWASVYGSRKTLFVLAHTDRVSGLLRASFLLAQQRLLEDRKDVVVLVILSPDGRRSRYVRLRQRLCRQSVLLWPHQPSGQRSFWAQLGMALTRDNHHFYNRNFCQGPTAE
- Protocol description: TLR9 inhibition reporter assay (HEK-Blue SEAP reporter, ODN2006 stimulation)
- Setup conditions: read-out: TLR9 IC50; HEK-Blue cells overexpressing human TLR9, ODN2006 5 nM, SEAP reporter
Measured quantity: IC50 (µM)

| Compound | Measured quantity | Endpoint unit | Comparison operator | Recorded result |
| --- | --- | --- | --- | --- |
| Cc1cc(-c2[nH]c3ccc(C(C)C(=O)NCC(C)(C)O)cc3c2C(C)C)ccn1 (centres unmarked) [Example 131] | IC50 | µM | > | 50 |
| CCc1c(-c2ccc(OC)c(OC)c2)[nH]c2ccc(C(=O)N3CCC(N4CCCCC4)CC3)cc12 [Example 56] | IC50 | µM | = | 2.19 |
| Cc1cc(-c2[nH]c3ccc(C(C)C(=O)N4CCC(CN)C4)cc3c2C(C)C)ccn1 (centres unmarked) [Example 199] | IC50 | µM | = | 1.21 |
| Cc1cc(-c2[nH]c3ccc(C(C)C(=O)N(C)C4CCNCC4)cc3c2C(C)C)ccn1 (centres unmarked) [Example 207] | IC50 | µM | = | 0.396 |
| CCc1c(-c2ccc(OC)c(OC)c2)[nH]c2ccc(C(=O)NCCN3CCCC3)cc12 [Example 48] | IC50 | µM | = | 2.7 |
| Cc1cc(-c2[nH]c3ccc(C(C)(C)C(=O)N4CC5CNCC5C4)cc3c2C(C)C)ccn1 (centres unmarked) [Example 183] | IC50 | µM | = | 0.387 |
| Cc1cc(-c2[nH]c3ccc(C(C)(C)C(=O)N4CCCCC4C4CCNCC4)cc3c2C(C)C)ccn1 (centres unmarked) [Example 182] | IC50 | µM | = | 0.716 |
| Cc1cc(-c2[nH]c3ccc(C(C)C(=O)NC4CN5CCC4CC5)cc3c2C(C)C)ccn1 (centres unmarked) [Example 192] | IC50 | µM | = | 1.53 |

* * *

- Subject of test: human TLR7 (Homo sapiens (Human))
- Sequence (Q9NYK1 27-1049): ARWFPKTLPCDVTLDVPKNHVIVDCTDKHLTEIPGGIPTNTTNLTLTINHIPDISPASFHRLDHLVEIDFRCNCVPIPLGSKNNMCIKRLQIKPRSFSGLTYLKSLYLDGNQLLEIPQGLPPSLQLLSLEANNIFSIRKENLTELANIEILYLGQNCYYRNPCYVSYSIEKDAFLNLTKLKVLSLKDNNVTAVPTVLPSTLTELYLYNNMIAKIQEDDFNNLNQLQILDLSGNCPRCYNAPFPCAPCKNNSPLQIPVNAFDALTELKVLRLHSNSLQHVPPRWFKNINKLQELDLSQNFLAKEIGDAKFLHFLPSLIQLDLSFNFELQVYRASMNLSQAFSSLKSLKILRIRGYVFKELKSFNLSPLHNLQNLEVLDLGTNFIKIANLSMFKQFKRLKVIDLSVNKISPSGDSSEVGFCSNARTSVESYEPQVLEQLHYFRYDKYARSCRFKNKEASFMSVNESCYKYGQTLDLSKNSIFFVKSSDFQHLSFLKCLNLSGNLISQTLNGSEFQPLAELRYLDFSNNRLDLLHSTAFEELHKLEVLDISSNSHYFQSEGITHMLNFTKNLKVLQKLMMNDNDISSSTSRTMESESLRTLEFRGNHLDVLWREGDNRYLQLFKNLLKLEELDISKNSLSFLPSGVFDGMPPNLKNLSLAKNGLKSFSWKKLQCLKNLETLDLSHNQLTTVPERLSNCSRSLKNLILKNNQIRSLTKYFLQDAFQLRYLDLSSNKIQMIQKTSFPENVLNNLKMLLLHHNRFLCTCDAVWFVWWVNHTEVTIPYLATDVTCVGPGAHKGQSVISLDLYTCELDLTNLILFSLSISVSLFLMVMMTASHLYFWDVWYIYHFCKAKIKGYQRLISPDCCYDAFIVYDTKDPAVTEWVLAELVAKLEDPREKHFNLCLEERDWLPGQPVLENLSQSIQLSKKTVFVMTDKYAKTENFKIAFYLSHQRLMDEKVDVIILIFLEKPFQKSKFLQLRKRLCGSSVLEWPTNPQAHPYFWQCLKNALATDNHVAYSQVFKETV
- Protocol description: TLR7 inhibition reporter assay (HEK-Blue SEAP reporter, gardiquimod stimulation)
- Assay type: cell-based
- Setup conditions: HEK-Blue cells overexpressing human TLR7, gardiquimod 7.5 μM

| Compound | Endpoint unit | IC50 |
| --- | --- | --- |
| CCc1c(-c2ccc(OC)c(OC)c2)[nH]c2ccc(C(=O)N3CC4CNCC4C3)cc12 (centres unmarked) | nM | 296 |
| COc1ccc(-c2[nH]c3ccc(C(=O)N4CC5CN(C(=O)CN(C)C)CC5C4)cc3c2CC(F)(F)F)cc1OC (centres unmarked) | nM | 914 |
| Cc1cc(-c2[nH]c3ccc(C(C)(C)C(=O)N4CC5CNCC5C4)cc3c2C(C)C)ccn1 (centres unmarked) | nM | 30 |
| Cc1cc(-c2[nH]c3ccc(C(C)C(=O)N[C@@H]4CCCNC4)cc3c2C(C)C)ccn1 (some centres unmarked) [Example 196] | nM | 51 |
| Cc1cc(-c2[nH]c3ccc(C(=O)N4CC5CN(C)CC5C4)cc3c2C(C)C)cc(C)n1 (centres unmarked) | nM | 18 |
| Cc1cc(-c2[nH]c3ccc(C(C)C(=O)N4CCC(N)CC4)cc3c2C(C)C)ccn1 (centres unmarked) | nM | 296 |
| CCc1c(-c2ccc(OC)c(OC)c2)[nH]c2ccc(C(=O)NCCCN3CCN(C)CC3)cc12 | nM | 954 |
| CCc1c(-c2ccc(OC)c(OC)c2)[nH]c2ccc(C(=O)N3CCCN(c4ccccn4)CC3)cc12 | nM | 1210 |

* * *

- Subject of test: human TLR8 (Homo sapiens (Human), UniProt Q9NR97)
- Sequence (Q9NR97 27-1041): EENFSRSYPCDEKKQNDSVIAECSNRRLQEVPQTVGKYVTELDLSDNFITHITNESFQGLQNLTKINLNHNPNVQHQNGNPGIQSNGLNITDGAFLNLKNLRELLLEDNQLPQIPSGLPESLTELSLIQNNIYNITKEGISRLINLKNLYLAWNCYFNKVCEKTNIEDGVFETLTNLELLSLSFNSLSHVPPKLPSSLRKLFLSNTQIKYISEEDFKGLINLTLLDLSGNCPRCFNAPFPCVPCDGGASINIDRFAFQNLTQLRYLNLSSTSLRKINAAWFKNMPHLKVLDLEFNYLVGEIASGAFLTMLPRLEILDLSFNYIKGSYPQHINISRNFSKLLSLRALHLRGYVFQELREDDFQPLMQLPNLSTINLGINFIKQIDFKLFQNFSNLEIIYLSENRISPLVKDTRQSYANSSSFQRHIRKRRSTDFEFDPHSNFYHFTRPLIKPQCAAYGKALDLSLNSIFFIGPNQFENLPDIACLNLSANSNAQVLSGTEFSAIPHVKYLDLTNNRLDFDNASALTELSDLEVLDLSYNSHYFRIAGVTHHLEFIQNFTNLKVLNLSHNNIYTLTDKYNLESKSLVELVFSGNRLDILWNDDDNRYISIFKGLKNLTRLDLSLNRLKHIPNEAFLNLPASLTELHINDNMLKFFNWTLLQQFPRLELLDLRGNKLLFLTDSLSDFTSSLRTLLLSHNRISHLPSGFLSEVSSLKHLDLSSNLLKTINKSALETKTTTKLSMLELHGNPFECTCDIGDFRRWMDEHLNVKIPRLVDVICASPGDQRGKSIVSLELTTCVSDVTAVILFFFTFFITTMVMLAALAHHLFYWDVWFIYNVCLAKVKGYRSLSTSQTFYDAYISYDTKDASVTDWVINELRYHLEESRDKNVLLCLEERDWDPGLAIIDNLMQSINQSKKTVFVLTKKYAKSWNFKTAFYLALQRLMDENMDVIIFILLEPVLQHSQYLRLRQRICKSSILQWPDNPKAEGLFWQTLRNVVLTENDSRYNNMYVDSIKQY
- Protocol description: TLR8 inhibition reporter assay (HEK-Blue SEAP reporter, R848 stimulation);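 also: SEAP driven by IFN-β minimal promoter with NF-κB and AP-1 sites, 22 h incubation, compounds 0.05 nM–50 µM, inhibition scaled between agonist plus DMSO and reference inhibitor wells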
- Setup conditions: read-out: TLR8 IC50; HEK-Blue cells overexpressing human TLR8, R848 15.9 μM, SEAP reporter
pIC50: −log10 of the molar value.

| Compound | Subject of test | pIC50 |
| --- | --- | --- |
| Cc1cc(-c2[nH]c3ccc(C(=O)NC4CCN(C(C)C)CC4)cc3c2CC(F)F)cc(C)n1 | human TLR8 (Homo sapiens (Human), UniProt Q9NR97) | 7.12 |
| Cc1cc(-c2[nH]c3ccc(C(C)(C)C(=O)NCCN)cc3c2C(C)C)ccn1 | human TLR8 (Homo sapiens (Human), UniProt Q9NR97) | 6.96 |
| Cc1cc(-c2[nH]c3ccc(C(C)(C)C(=O)NC4CCN(C5CCNC5)CC4)cc3c2C(C)C)ccn1 (stereo not shown) | human TLR8 (Homo sapiens (Human), UniProt Q9NR97) | 6.11 |
| CCc1c(-c2ccc(OC)c(OC)c2)[nH]c2ccc(C(=O)N3CCN(c4ncccn4)CC3)cc12 | human TLR8 (Homo sapiens (Human), UniProt Q9NR97) | 6.66 |

* * *

- Subject of test: human TLR9 (Homo sapiens (Human), UniProt Q9NR96)
- Protocol description: TLR9 inhibition reporter assay (HEK-Blue SEAP reporter, ODN2006 stimulation)
- Setup conditions: read-out: TLR9 IC50; HEK-Blue cells overexpressing human TLR9, ODN2006 5 nM, SEAP reporter
pIC50: −log10 of the molar value. Structures can show the parent of a compound that is named as a salt.

| Compound | Comparison operator | pIC50 |
| --- | --- | --- |
| CCc1c(-c2ccc(OC)c(OC)c2)[nH]c2ccc(C(=O)NCCCN3CCN(C)CC3)cc12 | = | 5.68 |
| Cc1cc(-c2[nH]c3ccc(C(=O)N(C)Cc4cccnc4)cc3c2C(C)C)cc(C)n1 | < | 4.30 |
| CCCN1CCC(N(C(=O)c2ccc3[nH]c(-c4cn(C)c(=O)c(Cl)c4C)c(C(C)C)c3c2)C2CC2)CC1 | = | 5.53 |
| CCN(CC)C(=O)C1CCCN(CC(=O)N2CC3CN(C(=O)c4ccc5[nH]c(-c6ccc(OC)c(OC)c6)c(C(C)C)c5c4)CC3C2)C1 (racemic) [Example 8] | = | 5.12 |
| CCc1c(-c2ccc(OC)c(OC)c2)[nH]c2ccc(C(=O)N3CC4CN(C(C)C)CC4C3)cc12 (stereo not drawn) | = | 5.72 |
| Cc1cc(-c2[nH]c3ccc(C(C)(C)C(=O)N4CCC(CN)CC4)cc3c2C(C)C)ccn1 | = | 5.52 |
| Cc1cc(-c2[nH]c3ccc(C(C)C(=O)NC4C[C@H]5CC[C@@H](C4)N5C)cc3c2C(C)C)ccn1 (stereo partly drawn) | = | 5.33 |
| Cc1cc(-c2[nH]c3ccc(C(C)C(=O)NC4CCNCC4)cc3c2C(C)C)ccn1 (stereo not drawn) | = | 5.47 |
| CCc1c(-c2ccc(OC)c(OC)c2)[nH]c2ccc(C(=O)N3CC[C@H](N(C)C)C3)cc12 | = | 5.38 |
| Cc1cc(-c2[nH]c3ccc(C(=O)N(C)C)cc3c2C(C)C)cc(C)n1 | < | 4.30 |
| Cc1cc(-c2[nH]c3ccc(C(C)(C)C(=O)NC4CCC(N)CC4)cc3c2C(C)C)ccn1 (stereo not drawn) | = | 5.54 |
| CCc1c(-c2ccc(OC)c(OC)c2)[nH]c2ccc(C(=O)N3CCN(CCOC)CC3)cc12 | = | 4.57 |
| CC(C)c1c(-c2ccnc3[nH]ncc23)[nH]c2ccc(C(=O)N3CC4CNCC4C3)cc12 (stereo not drawn) [Example 121, HCl] | = | 5.48 |
| CNCCN1CC2CN(C(=O)c3ccc4[nH]c(-c5ccc(OC)c(OC)c5)c(C(C)C)c4c3)CC2C1 (stereo not drawn) | = | 5.92 |
| Cc1cc(-c2[nH]c3ccc(C(C)C(=O)N[C@H]4CCNC4)cc3c2C(C)C)ccn1 (stereo partly drawn) [Example 189] | = | 5.78 |

* * *

- Subject of test: human TLR9 (Homo sapiens (Human), UniProt Q9NR96)
- Protocol description: TLR9 inhibition reporter assay (HEK-Blue SEAP reporter, ODN2006 stimulation);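 also: SEAP reporter under IFN-β minimal promoter with five NF-κB and AP-1 sites, 22 h incubation, compounds 0.05 nM–50 µM, inhibition relative to agonist plus DMSO versus known inhibitor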
- Setup conditions: read-out: TLR9 IC50; HEK-Blue cells overexpressing human TLR9, ODN2006 5 nM, SEAP reporter
pIC50: −log10 of the molar value.
Measured quantity: pIC50

| Compound | Comparison operator | Recorded result |
| --- | --- | --- |
| CCc1c(-c2ccc(OC)c(OC)c2)[nH]c2ccc(C(=O)N3CCNC(=O)C3)cc12 | < | 4.30 |
| Cc1cc(-c2[nH]c3ccc(C(C)(C)C(=O)N4CCCC5(CNC5)C4)cc3c2C(C)C)ccn1 | = | 6.00 |
| Cc1cc(-c2[nH]c3ccc(C(C)C(=O)N[C@@H]4CCCNC4)cc3c2C(C)C)ccn1 (stereo partly shown) [Example 195] | = | 6.04 |
| Cc1cc(-c2[nH]c3ccc(C(C)(C)C(=O)N4CCC[C@H](N)C4)cc3c2C(C)C)ccn1 | = | 5.69 |
| Cc1cc(-c2[nH]c3ccc(C(C)(C)C(=O)N4CCCCC4CN)cc3c2C(C)C)ccn1 (stereo not shown) | = | 6.00 |
| Cc1cc(-c2[nH]c3ccc(C(C)(C)C(=O)N4CC5(CCNCC5)C4)cc3c2C(C)C)ccn1 | = | 5.31 |
| Cc1cc(-c2[nH]c3ccc(C(C)(C)C(=O)N4CCC5(CCNC5)C4)cc3c2C(C)C)ccn1 (stereo not shown) | = | 5.78 |
| COCCN(C)C(=O)c1ccc2[nH]c(-c3cc(C)nc(C)c3)c(C(C)C)c2c1 | < | 4.30 |
| CCc1c(-c2ccc(OC)c(OC)c2)[nH]c2ccc(C(=O)N(C)Cc3cccnc3)cc12 | = | 4.43 |
| Cc1cc(-c2[nH]c3ccc(C(=O)N4CC5CN(CC(=O)N(C)C)CC5C4)cc3c2C(C)C)ccn1 (stereo not shown) | = | 5.43 |
| Cc1cc(-c2[nH]c3ccc(C(=O)N4CC5CN(C)CC5C4)cc3c2C(C)C)cc(C)n1 (stereo not shown) | = | 6.94 |
| Cc1cc(-c2[nH]c3ccc(C(C)(C)C(=O)NC4CCC5CNCC54)cc3c2C(C)C)ccn1 (stereo not shown) [Example 147] | = | 5.92 |
| Cc1cc(-c2[nH]c3ccc(C(C)(C)C(=O)N4CC5CC4CN5)cc3c2C(C)C)ccn1 (stereo not shown) | = | 5.08 |
| Cc1cc(-c2[nH]c3ccc(C(C)C(=O)NC[C@H]4CCNC4)cc3c2C(C)C)ccn1 (stereo partly shown) | = | 5.30 |
| Cc1cc(-c2[nH]c3ccc(C(=O)NC4CCN(C(C)C)CC4)cc3c2C(C)C)ccn1 | = | 5.90 |
| Cc1cc(-c2[nH]c3ccc(C(C)(C)C(=O)NCCC4CCCNC4)cc3c2C(C)C)ccn1 (stereo not shown) | = | 5.28 |
| COc1ccc(-c2[nH]c3ccc(C(=O)N4CC5CN(CC(=O)N(C)C)CC5C4)cc3c2C(C)C)cc1OC (stereo not shown) | = | 5.28 |
| CCc1c(-c2ccc(OC)c(OC)c2)[nH]c2ccc(C(=O)N3CCN(C(C)C)CC3)cc12 | = | 5.28 |
| COc1cc(-c2[nH]c3ccc(C(=O)N4CC5CNCC5C4)cc3c2C(C)C)cn2ncnc12 (stereo not shown) | = | 5.62 |
| Cc1cc(-c2[nH]c3ccc(C(=O)N4CC5CN(C(C)C)CC5C4)cc3c2C(C)C)cc(C)n1 (stereo not shown) | = | 6.39 |
| Cc1cc(-c2[nH]c3ccc(C(C)C(=O)NCC4CCCNC4)cc3c2C(C)C)ccn1 (stereo not shown) | = | 5.58 |
| CCc1c(-c2ccc(OC)c(OC)c2)[nH]c2ccc(C(=O)N3CCCC(C)(C)C3)cc12 | = | 5.29 |
| CCc1c(-c2ccc(OC)c(OC)c2)[nH]c2ccc(C(=O)N3CC4CNCC4C3)cc12 (stereo not shown) | = | 5.98 |
| COc1cc(-c2[nH]c3ccc(C(=O)N4CCCN(C)CC4)cc3c2C(C)C)cn2ncnc12 | = | 5.85 |
| Cc1cc(-c2[nH]c3ccc(C(=O)N4CC5CN(C(=O)CN(C)C)CC5C4)cc3c2C(C)C)cc(C)n1 (stereo not shown) | = | 6.18 |
| Cc1cc(-c2[nH]c3ccc(C(C)C(=O)N4CC5CN(C)CC5C4)cc3c2C(C)C)ccn1 (stereo not shown) | = | 5.48 |
| CCc1c(-c2ccc(OC)c(OC)c2)[nH]c2ccc(C(=O)NCCCN3CCCCC3)cc12 | = | 5.70 |
| CCc1c(-c2ccc(OC)c(OC)c2)[nH]c2ccc(C(=O)N3CCC(N(C)C)CC3)cc12 | = | 5.31 |
| Cc1cc(-c2[nH]c3ccc(C(C)(C)C(=O)NC4CCNCC4)cc3c2C(C)C)ccn1 | = | 6.25 |
| Cc1cc(-c2[nH]c3ccc(C(C)(C)C(=O)N4CC5CN(C)CC5C4)cc3c2C(C)C)ccn1 (stereo not shown) | = | 5.52 |
| CC(C)c1c(-c2ccnc(N)c2)[nH]c2ccc(C(=O)NC3CCC(N(C)C)CC3)cc12 (stereo not shown) | = | 6.36 |
